Tested on: Bowes
Test: drug sensitivity score (DSS) (DSS (unitless, 0-50 scale)); higher = more sensitive (stronger viability inhibition); extreme values may be limits of the assay
Details: 72 h; culture: 2D
measured_parameter: drug sensitivity score
Lab note: jot the number down without any unit.

compound	drug sensitivity score
COc1cc([C@@H]2c3cc4c(cc3[C@@H](O[C@@H]3O[C@@H]5CO[C@@H](c6cccs6)O[C@H]5[C@H](O)[C@H]3O)[C@H]3COC(=O)[C@H]23)OCO4)cc(OC)c1O [Teniposide]	0
O=C(O)CCCCC(CCSCc1ccccc1)SCc1ccccc1 (stereo not drawn) [CPI-613]	0
Cc1cc(Nc2cc(N3CCN(C)CC3)nc(/C=C/c3ccccc3)n2)n[nH]1 [ENMD-2076]	11.1
CC(C)(C)Cn1c(N)nc2ccc(-c3[nH]c(C(C)(C)C)nc3-c3ccc(F)cc3)nc21 [Ralimetinib]	0
Nc1ncn([C@H]2C[C@H](O)[C@@H](CO)O2)c(=O)n1 [Decitabine]	0
COc1cc2ncnc(Nc3cccc(Cl)c3F)c2cc1OC(=O)N1CCN(C)C[C@H]1C [AZD3759]	0
FC(F)c1nc2ccccc2n1-c1nc(N2CCOCC2)nc(N2CCOCC2)n1 [ZSTK474]	7

Requested field: drug sensitivity score. Item: N#Cc1ccc2[nH]c(O)c(-c3ccc(CN4CCOCC4)cn3)c2c1 [AZD-1080]
0

---

Listing of entries alongside the reported drug sensitivity score.
System: FM-MEL-2
Assay: drug sensitivity score (DSS) (DSS (unitless)); higher = more sensitive
Settings: 72 h; culture: 3D spheroid
Lab note: jot the number down without any unit.

In [3]: df
Out[3]:
                                smiles_text  assay_system      measured_parameter  observed_result
0  CC(C)NC(=O)COc1cccc(-c2nc(Nc3ccc4[nH]ncc4c3)c3ccccc3n2)c1      FM-MEL-2  drug sensitivity score             24.2

Requested field: drug sensitivity score. Item: `Cn1c(=O)n(-c2ccc(C(C)(C)C#N)cc2)c2c3cc(-c4cnc5ccccc5c4)ccc3ncc21`
14.6

Requested field: drug sensitivity score. Item: `CC(=O)Nc1cccc(-n2c(=O)n(C3CC3)c(=O)c3c(Nc4ccc(I)cc4F)n(C)c(=O)c(C)c32)c1`
23.3

Requested field: drug sensitivity score. Item: `COc1cccc(OCCCN)c1-c1cc(Nc2cnc(C#N)cn2)n[nH]1`
4.9

---

System: FM-MEL-6
Experiment: drug sensitivity score (DSS) (DSS (unitless, 0-50 scale)); higher = more sensitive (stronger viability inhibition); extreme values may be limits of the assay
Settings: 72 h; culture: 2D
measured_parameter: drug sensitivity score
Lab note: jot the number down without any unit.

Please review the entries below; each comes with its answer.
In [3]: df
Out[3]:
                                   molecule  observed_result
0      O=C(NOCCO)c1ccc2cncn2c1Nc1ccc(I)cc1F              6.2
1  CCCCCOC(=O)Nc1nc(=O)n([C@@H]2O[C@H](C)[C@@H](O)[C@H]2O)cc1F                0

Give recorded drug sensitivity score with FM-MEL-6 for the following molecule: O=c1[nH]c(C2CCCN2)nc2c1oc1ccc(Cl)cc12 (centres undefined)
0

Give recorded drug sensitivity score with FM-MEL-6 for the following molecule: `COc1cc2c(Oc3ccc4[nH]c(C)cc4c3F)ncnc2cc1OCCCN1CCCC1`
1.3

Give recorded drug sensitivity score with FM-MEL-6 for the following molecule: O=C1CN2Cc3c(ccc(Cl)c3Cl)N=C2N1 [Anagrelide]
0

Give recorded drug sensitivity score with FM-MEL-6 for the following molecule: `O=C(O)CNC(=O)c1c(O)c2ccccc2n(Cc2ccccc2)c1=O`
0

Give recorded drug sensitivity score with FM-MEL-6 for the following molecule: `CC(=O)[C@]1(O)Cc2c(O)c3c(c(O)c2[C@@H](O[C@H]2C[C@H](N)[C@H](O)[C@H](C)O2)C1)C(=O)c1ccccc1C3=O`
8.1

Give recorded drug sensitivity score with FM-MEL-6 for the following molecule: `N#Cc1ccc(COC[C@H]2O[C@@H](n3c(NCc4ccc(Cl)c(Cl)c4)nc4c(N)ncnc43)[C@H](O)[C@@H]2O)cc1`
1

Give recorded drug sensitivity score with FM-MEL-6 for the following molecule: `C[C@@H](Oc1cc(-n2cnc3ccc(CN4CCN(C)CC4)cc32)sc1C(N)=O)c1ccccc1C(F)(F)F`
10

---

Tested on: FM-MEL-6
Assay: drug sensitivity score (DSS) (DSS (unitless, 0-50 scale)); higher = more sensitive (stronger viability inhibition); extreme values may be limits of the assay
Settings: 72 h; culture: 2D
Label scheme for drug sensitivity score: lower than 5 is not fulfilled, 5 and above is fulfilled.

molecule	category_label
C[C@H]1O[C@@H](O[C@H]2[C@@H](O)C[C@H](O[C@H]3[C@@H](O)C[C@H](O[C@H]4CC[C@@]5(C)[C@H](CC[C@@H]6[C@@H]5C[C@@H](O)[C@]5(C)[C@@H](C7=CC(=O)OC7)CC[C@]65O)C4)O[C@@H]3C)O[C@@H]2C)C[C@H](O)[C@@H]1O [Digoxin]	fulfilled
COc1ccc(C[C@H](NC(=O)[C@H](C)NC(=O)CN2CCOCC2)C(=O)N[C@@H](Cc2ccccc2)C(=O)C2(C)CO2)cc1 (stereo in doubt) [ONX-0914]	fulfilled
Cc1c2oc3c(C)ccc(C(=O)N[C@@H]4C(=O)N[C@H](C(C)C)C(=O)N5CCC[C@H]5C(=O)N(C)CC(=O)N(C)[C@@H](C(C)C)C(=O)O[C@@H]4C)c3nc-2c(C(=O)N[C@@H]2C(=O)N[C@H](C(C)C)C(=O)N3CCC[C@H]3C(=O)N(C)CC(=O)N(C)[C@@H](C(C)C)C(=O)O[C@@H]2C)c(N)c1=O [Dactinomycin]	fulfilled
CCN1CCN(c2ccc(Nc3cc(N(C)C(=O)Nc4c(Cl)c(OC)cc(OC)c4Cl)ncn3)cc2)CC1 [Infigratinib]	not fulfilled
NC(=O)NO [Hydroxyurea]	not fulfilled

Determine whether measured drug sensitivity score meets or exceeds 5 for Nc1nc(Cl)nc2c1ncn2[C@H]1C[C@H](O)[C@@H](CO)O1 [Cladribine]
not fulfilled

Determine whether measured drug sensitivity score meets or exceeds 5 for C[C@@H]1CCN(C(=O)CC#N)C[C@@H]1N(C)c1ncnc2[nH]ccc12 [Tofacitinib]
not fulfilled

---

System: FM-MEL-6
Experiment: drug sensitivity score (DSS) (DSS (unitless, 0-50 scale)); higher = more sensitive (stronger viability inhibition); extreme values may be limits of the assay
Settings: 72 h; culture: 2D
Listing of entries alongside the reported drug sensitivity score.
Lab note: jot the number down without any unit.

Please review the entries below; each comes with its answer.
                                   molecule  observed_result
0  CCn1c(-c2nonc2N)nc2cnc(Oc3cccc(NC(=O)c4ccc(OCCN5CCOCC5)cc4)c3)cc21              0.3
1  CCCCNc1ncc(C(=O)NCc2ccc(-n3ccnc3)cc2)c(NC2CCC(O)CC2)n1 (stereo not drawn)                0

Requested field: drug sensitivity score. Item: `CO[C@@H](C)Cn1c(=O)n(C)c2cnc3ccc(-c4cncc(C(C)(C)O)c4)cc3c21`
9.3

Requested field: drug sensitivity score. Item: C[C@]12CC[C@@H]3c4ccc(O)cc4C[C@@H](CCCCCCCCC[S+]([O-])CCCC(F)(F)C(F)(F)F)[C@H]3[C@@H]1CC[C@@H]2O (stereo partly drawn)
0

Requested field: drug sensitivity score. Item: `Cn1cc(-c2cnn3c(N)c(Br)c([C@@H]4CCCNC4)nc23)cn1`
0

Requested field: drug sensitivity score. Item: `Cc1cnc(NC(=O)Nc2cc(Br)c(C)cc2OC[C@@H]2CNCCO2)cn1`
0

Requested field: drug sensitivity score. Item: `CN1CCC(CNc2ccc3ncc(-c4cccc(OC(F)(F)F)c4)n3n2)CC1`
5.3

Requested field: drug sensitivity score. Item: `CC#CC(=O)N1CCC[C@H]1c1nc(-c2ccc(C(=O)Nc3ccccn3)cc2)c2c(N)nccn12`
3.4

Requested field: drug sensitivity score. Item: `Cc1ccc(NC(=O)c2ccc(CN3CC[C@H](N(C)C)C3)c(C(F)(F)F)c2)cc1Nc1nccc(-c2cncnc2)n1`
0

---

System: FM-MEL-6
Test: drug sensitivity score (DSS) (DSS (unitless, 0-50 scale)); higher = more sensitive (stronger viability inhibition); extreme values may be limits of the assay
Conditions: 72 h; culture: 2D
Label scheme for drug sensitivity score: lower than 0.7 is 0, 0.7 and above is 1.

compound	category_label
C=CC(=O)Nc1cc(Nc2nccc(-c3cn(C)c4ccccc34)n2)c(OC)cc1N(C)CCN(C)C	1
O[C@H]1CC[C@H](Nc2ncc3nc(Nc4c(F)cc(F)cc4F)n([C@H]4CCOC4)c3n2)CC1	0
CC[C@H](CO)Nc1nc(NCc2ccccc2)c2ncn(C(C)C)c2n1	0
CNC(=O)c1cc(Oc2ccc(NC(=O)Nc3ccc(Cl)c(C(F)(F)F)c3)c(F)c2)ccn1	1
Cc1c(N)nc([C@H](CC(N)=O)NC[C@H](N)C(N)=O)nc1C(=O)N[C@H](C(=O)N[C@H](C)[C@@H](O)[C@H](C)C(=O)N[C@H](C(=O)NCCc1nc(-c2nc(C(=O)NCCC[S+](C)C)cs2)cs1)[C@@H](C)O)[C@@H](OC1OC(CO)C(O)C(O)C1OC1OC(CO)C(O)C(OC(N)=O)C1O)c1cnc[nH]1 (some centres undefined)	1

Determine whether measured drug sensitivity score meets or exceeds 0.7 for Cc1nc2cccc(N)c2c(=O)n1C1CCC(=O)NC1=O (centres undefined)
1

Determine whether measured drug sensitivity score meets or exceeds 0.7 for `CCCCCCCCc1ccc(CCC(N)(CO)CO)cc1`
1

Determine whether measured drug sensitivity score meets or exceeds 0.7 for `CS(=O)(=O)N1CCN(Cc2cc3nc(-c4cccc5[nH]ncc45)nc(N4CCOCC4)c3s2)CC1`
1

Determine whether measured drug sensitivity score meets or exceeds 0.7 for `CO[C@H]1C(=O)[C@]2(C)[C@@H](OC)C[C@H]3OC[C@@]3(OC(C)=O)[C@H]2[C@H](OC(=O)c2ccccc2)[C@]2(O)C[C@H](OC(=O)[C@H](O)[C@@H](NC(=O)OC(C)(C)C)c3ccccc3)C(C)=C1C2(C)C`
1

Determine whether measured drug sensitivity score meets or exceeds 0.7 for `N#CC1(c2ccc(NC(=O)c3cccnc3NCc3ccncc3)cc2)CCCC1`
0

Determine whether measured drug sensitivity score meets or exceeds 0.7 for `CCNC(=O)c1noc(-c2cc(C(C)C)c(O)cc2O)c1-c1ccc(CN2CCOCC2)cc1`
1

Determine whether measured drug sensitivity score meets or exceeds 0.7 for `CC1(C)CNc2cc(NC(=O)c3cccnc3NCc3ccncc3)ccc21`
0

Determine whether measured drug sensitivity score meets or exceeds 0.7 for `CC[C@@H]1C(=O)N(C)c2cnc(Nc3ccc(C(=O)N[C@H]4CC[C@H](N5CCN(CC6CC6)CC5)CC4)cc3OC)nc2N1C(C)C`
1

Determine whether measured drug sensitivity score meets or exceeds 0.7 for N.N.[Cl][Pt][Cl] [Cisplatin]
1
